Measured values drawn from ChEMBL document CHEMBL4831524 for this set.

# assay-details: Oral bioavailability in Han Wistar rat at 50 mg/kg using crystaline form of sample
# Assay type: ADME, organism-based
# assay-conditions: in vivo
outcome-measure: bioavailability (%)
Please reply with the bare figure in % and do not write the unit itself.

Value of bioavailability reported for the compound `CC(=O)N1Cc2cc(S(C)(=O)=O)ccc2[C@@H]1C(=O)Nc1ccc(C(O)(C(F)(F)F)C(F)(F)F)cc1` is 5

----------
# Tested on: MDR1
# assay-details: Apparent permeability across basolateral to apical side in dog MDCK-MDR1 cells
# Format: ADME, cell-based, Canis lupus familiaris
outcome-measure: Papp B→A

Reading of Papp B→A for `CC(=O)N1Cc2cc(S(C)(=O)=O)ccc2[C@@H]1C(=O)Nc1ccc(C(O)(C(F)(F)F)C(F)(F)F)cc1` with MDR1: 16 ×10⁻⁶ cm/s

----------
# assay-details: Volume of distribution at steady state in Beagle dog at 1 mg/kg, iv
# Assay type: ADME, organism-based, Canis lupus familiaris
# assay-conditions: in vivo, read-out: Vdss
outcome-measure: Vd (L/kg)
Quick reminder: number only, in L/kg, skip the unit.

`CC(=O)N1Cc2cc(S(C)(=O)=O)ccc2[C@@H]1C(=O)Nc1ccc(C(O)(C(F)(F)F)C(F)(F)F)cc1` yielded Vd of 1.9

----------
# assay-details: Fraction absorbed in Han Wistar rat at 50 mg/kg, po using EtOH form of sample
# Format: ADME, organism-based
# assay-conditions: in vivo, read-out: Fabs
outcome-measure: Fa (%)
Give the quantity in %, number only.

The recorded Fa for `CC(=O)N1Cc2cc(S(C)(=O)=O)ccc2[C@@H]1C(=O)Nc1ccc(C(O)(C(F)(F)F)C(F)(F)F)cc1` is 42

----------
# assay-details: Oral bioavailability in Han Wistar rat at 50 mg/kg using EtOH form of sample
# Format: ADME, organism-based
# assay-conditions: in vivo
outcome-measure: bioavailability (%)
Answer format: numeric, % implied, no suffix.

The reported value for `CC(=O)N1Cc2cc(S(C)(=O)=O)ccc2[C@@H]1C(=O)Nc1ccc(C(O)(C(F)(F)F)C(F)(F)F)cc1` in terms of bioavailability is 35

----------
Examples of molecules with documented logD follow.
# assay-details: physchem
# assay-conditions: 1-octanol/phosphate buffered saline, pH 7.4
Number only, please.

Worked cases, logD given:
molecule | outcome-measure | result-value
CCS(=O)(=O)c1ccc(C(NC(=O)CC2CC2)C(=O)Nc2ccc(C(O)(C(F)(F)F)C(F)(F)F)cc2)nc1 (centres undefined) | logD | 3.5
CC(=O)N1Cc2cc(S(=O)(=O)CC3(F)CC3)ccc2C1C(=O)Nc1ccc(C(O)(C(F)(F)F)C(F)(F)F)cc1 (centres undefined) | logD | 3.1

Field logD (entry CCS(=O)(=O)c1ccc2c(c1)CN(C(=O)CCC#N)C2C(=O)Nc1ccc(C(O)(C(F)(F)F)C(F)(F)F)cc1 (centres undefined) ) reads 2.5

// CCS(=O)(=O)c1ccc(C(CC(=O)N(C)C)C(=O)Nc2ccc(C(O)(C(F)(F)F)C(F)(F)F)cc2)cc1 (centres undefined) : logD value = 3.1

The molecule listed as CCS(=O)(=O)c1ccc(C(CC(=O)NC)C(=O)Nc2ccc(C(O)(C(F)(F)F)C(F)(F)F)cc2)cc1 (centres undefined) has a reported logD of 3.1

# logD of CNC(=O)N1Cc2cc(S(C)(=O)=O)ccc2C1C(=O)Nc1ccc(C(O)(C(F)(F)F)C(F)(F)F)cc1 (centres undefined) = 2.5

So for CCS(=O)(=O)c1ccc(C(NC(=O)Cc2ccccc2)C(=O)Nc2ccc(C(O)(C(F)(F)F)C(F)(F)F)cc2)nc1 (centres undefined) , the logged logD turned out to be 4

For record `CCS(=O)(=O)c1ccc([C@@H](CC(=O)NC)C(=O)Nc2ccc(C(O)(C(F)(F)F)C(F)(F)F)cc2)cc1` the listed logD is 3.2

The reported logD of the molecule CS(=O)(=O)c1ccc2c(c1)CN(C(=O)C1CCO1)C2C(=O)Nc1ccc(C(O)(C(F)(F)F)C(F)(F)F)cc1 (centres undefined) was 2.2

Value of measured logD for the entry CCS(=O)(=O)c1ccc(C(NC(=O)Cc2nccs2)C(=O)Nc2ccc(C(O)(C(F)(F)F)C(F)(F)F)cc2)nc1 (centres undefined) : 3.1

Entry CS(=O)(=O)c1ccc2c(c1)CNC2C(=O)Nc1ccc(C(O)(C(F)(F)F)C(F)(F)F)cc1 (centres undefined) ; logD = 3

GET /value?item= CCS(=O)(=O)c1ccc2c(c1)CN(C(=O)C1CCO1)C2C(=O)Nc1ccc(C(O)(C(F)(F)F)C(F)(F)F)cc1 (centres undefined) &field=logD returns 2.6

Measured logD of CCS(=O)(=O)c1ccc(C(NC(C)=O)C(=O)Nc2ccc(C(O)(C(F)(F)F)C(F)(F)F)cc2)nc1 (centres undefined) : 2.5
